Biological target: ACVR2B (Homo sapiens)
Sequence (Q13705 19-512): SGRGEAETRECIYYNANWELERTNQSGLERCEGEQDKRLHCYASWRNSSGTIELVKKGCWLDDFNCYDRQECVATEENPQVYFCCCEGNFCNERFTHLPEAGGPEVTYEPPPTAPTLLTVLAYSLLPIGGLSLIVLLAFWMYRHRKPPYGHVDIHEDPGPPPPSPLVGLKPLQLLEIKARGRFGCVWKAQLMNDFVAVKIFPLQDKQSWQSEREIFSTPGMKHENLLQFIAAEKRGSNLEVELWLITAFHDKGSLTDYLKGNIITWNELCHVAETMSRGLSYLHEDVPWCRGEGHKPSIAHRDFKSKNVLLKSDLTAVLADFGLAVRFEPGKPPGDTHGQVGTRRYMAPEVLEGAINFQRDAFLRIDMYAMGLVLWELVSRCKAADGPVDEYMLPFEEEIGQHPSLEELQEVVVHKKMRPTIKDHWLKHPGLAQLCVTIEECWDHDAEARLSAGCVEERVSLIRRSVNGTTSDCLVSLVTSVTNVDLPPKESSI
pIC50: −log10 of the molar value.

- STRUCTURE SMILES STRING: "c1ccc2c(-c3cnn4cc(-c5ccc(N6CCNCC6)cc5)cnc34)ccnc2c1"
  pIC50: 7.70

###

Molecular target: ALK2 (Mus musculus)
Construct: endogenous in cells
Experiment: Luciferase reporter gene assay for ALK2 activity (C2C12 BRE-Luc SMAD1/5/8 reporter, BMP6 agonist)
Conditions: BMP6 50 ng/mL
Listing of recorded IC50 by entry.

- STRUCTURE SMILES STRING: "COc1cc2c(-c3cnn4cc(N5C[C@H]6CN(C)C[C@H]6C5)cnc34)ccnc2cc1F"
  UNIT SPEC: "nM"
  VALUE QUALIFIER: "="
  IC50: 26
- STRUCTURE SMILES STRING: "COc1cc2c(-c3cnn4cc(N5CCC(N6C[C@H]7C[C@@H]6CN7C)CC5)cnc34)ccnc2cc1F"
  UNIT SPEC: "nM"
  VALUE QUALIFIER: "="
  IC50: 9
- STRUCTURE SMILES STRING: "COc1cc2c(-c3cnn4cc(N5CCC(N6CC[N+](C)(C)CC6)CC5)cnc34)ccnc2cc1F"
  UNIT SPEC: "nM"
  VALUE QUALIFIER: ">"
  IC50: 3000
- STRUCTURE SMILES STRING: "Cc1ccc2nccc(-c3cnn4cc(N5CC(c6ccncc6)C5)cnc34)c2c1"
  UNIT SPEC: "nM"
  VALUE QUALIFIER: "="
  IC50: 159
- STRUCTURE SMILES STRING: "CN1CCN(C2CN(c3cnc4c(-c5ccncc5)cnn4c3)C2)CC1"
  UNIT SPEC: "nM"
  VALUE QUALIFIER: "="
  IC50: 2

###

Listed below: pIC50 values for each entry.
Molecular target: ALK2 (Homo sapiens, UniProt Q04771)
Sequence (Q04771 147-509 limits assumed): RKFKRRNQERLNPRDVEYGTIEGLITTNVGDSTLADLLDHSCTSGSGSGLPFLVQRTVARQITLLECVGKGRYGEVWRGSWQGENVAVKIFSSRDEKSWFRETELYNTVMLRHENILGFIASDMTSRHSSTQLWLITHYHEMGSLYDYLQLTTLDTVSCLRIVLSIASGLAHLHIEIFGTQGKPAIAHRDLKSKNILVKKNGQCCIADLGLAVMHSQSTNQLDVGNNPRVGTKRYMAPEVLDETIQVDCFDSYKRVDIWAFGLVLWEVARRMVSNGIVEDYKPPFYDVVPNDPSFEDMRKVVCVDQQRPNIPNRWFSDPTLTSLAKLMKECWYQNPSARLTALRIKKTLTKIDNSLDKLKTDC
Test: ALK2 (nM), Table 15
Type: biochemical
pIC50: −log10 of the molar value.

- MOLECULE: "c1ccc2c(-c3cnn4cc(N5CCN(C6CCNCC6)CC5)cnc34)ccnc2c1 [Compound 79]"
  ASSAY SYSTEM: "ALK2 (Homo sapiens, UniProt Q04771)"
  pIC50: 6.96
- MOLECULE: "c1ccc2c(-c3cnn4cc(N5CCNCC5)cnc34)ccnc2c1 [Compound 80]"
  ASSAY SYSTEM: "ALK2 (Homo sapiens, UniProt Q04771)"
  pIC50: 7.03

###

Target: ALK2 (Mus musculus, UniProt P37172)
Construct: endogenous in cells
Sequence (P37172 21-509): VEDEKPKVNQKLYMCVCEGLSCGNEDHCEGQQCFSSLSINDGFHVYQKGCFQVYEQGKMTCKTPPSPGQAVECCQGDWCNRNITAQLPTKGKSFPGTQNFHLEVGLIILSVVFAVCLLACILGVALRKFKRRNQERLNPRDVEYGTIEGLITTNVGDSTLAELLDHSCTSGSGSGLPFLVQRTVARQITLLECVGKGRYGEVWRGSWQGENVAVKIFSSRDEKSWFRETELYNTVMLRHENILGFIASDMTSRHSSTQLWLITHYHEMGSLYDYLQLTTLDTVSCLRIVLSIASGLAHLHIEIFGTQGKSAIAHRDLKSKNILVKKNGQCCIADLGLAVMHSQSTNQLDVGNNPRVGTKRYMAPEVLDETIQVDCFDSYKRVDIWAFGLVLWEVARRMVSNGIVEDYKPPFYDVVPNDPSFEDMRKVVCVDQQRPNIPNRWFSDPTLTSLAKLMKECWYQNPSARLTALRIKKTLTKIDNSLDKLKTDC
Test: Luciferase reporter gene assay for ALK2 activity (C2C12 BRE-Luc SMAD1/5/8 reporter, BMP6 agonist)
Details: BMP6 50 ng/mL
pIC50: −log10 of the molar value.
PARAMETER: pIC50

- MOLECULE: "Cc1cc(-c2cnn3cc(N4CCN(CC(C)(C)O)CC4)cnc23)c2ccccc2n1 [Compound 198]"
  VALUE QUALIFIER: "="
  RESULT: 6.52
- MOLECULE: "COc1cc2c(-c3cnn4cc(N5CCC(N6CCN(C)CC6)CC5)ccc34)ccnc2cc1F [Compound 230]"
  VALUE QUALIFIER: "="
  RESULT: 7.34
- MOLECULE: "Cc1cc(-c2cnn3cc(N4CCC(N5CCN(C)CC5)CC4)cnc23)c2cc(F)cc(F)c2n1 [Compound 276]"
  VALUE QUALIFIER: "="
  RESULT: 6.79
- MOLECULE: "COc1cc2c(-c3cnn4cc(N5CCN(c6ccncc6)CC5)cnc34)ccnc2cc1F [Compound 202]"
  VALUE QUALIFIER: "="
  RESULT: 6.29
- MOLECULE: "CN1CCN(C2CCN(c3cnc4c(-c5cc(C#N)nc6ccccc56)cnn4c3)CC2)CC1 [Compound 237]"
  VALUE QUALIFIER: "="
  RESULT: 8.22
- MOLECULE: "COc1cc2c(-c3cnc4cc(N5CC(N6CCN(C)CC6)C5)cnn34)ccnc2cc1F [Compound 335]"
  VALUE QUALIFIER: "="
  RESULT: 7.33
- MOLECULE: "CN1CCN(C2CCN(c3cnc4c(-c5cnn(C)c5)cnn4c3)CC2)CC1 [Compound 246]"
  VALUE QUALIFIER: "<"
  RESULT: 6.00
- MOLECULE: "COc1cc2c(-c3cnn4cc(N5CCC(N6CCN(C)CC6)CC5)cnc34)ccnc2cc1C [Compound 29]"
  VALUE QUALIFIER: "="
  RESULT: 7.08

###

Molecular target: ALK2 (Mus musculus, UniProt P37172)
Construct: endogenous in cells
Experiment: Luciferase reporter gene assay for ALK2 activity (C2C12 BRE-Luc SMAD1/5/8 reporter, BMP6 agonist)
Settings: BMP6 50 ng/mL
Method: All cell lines were cultured in DMEM, supplemented with […] and 1% Pen/Strep. All media reagents were obtained from Gibco. BMP6, BMP9, and TGFβ were obtained from R&D Systems. […] In this reporter gene cell based ALK2 and TGFβ assay, the C2C12 cell line was employed for the measurement of ALK2 activity, using a BRE-Luc SMAD1/5/8 reporter and BMP6 as the agonist. […] Luciferase reporter assays were read using Promega Steady-Glo Luciferase Assay System. […]

- STRUCTURE SMILES STRING: "COc1ccc2c(-c3cnn4cc(N5CCC(N6CCN(C)CC6)CC5)cnc34)ccnc2c1"
  IC50 [nM]: 244
- STRUCTURE SMILES STRING: "CN1CCN(C2CCN(c3cnc4c(-c5ccnc6ccc(OC(F)(F)F)cc56)cnn4c3)CC2)CC1"
  IC50 [nM]: 85
- STRUCTURE SMILES STRING: "CN1CCN(C2CCN(c3cnc4c(-c5ccnc6ccc(C(F)(F)F)cc56)cnn4c3)CC2)CC1"
  IC50 [nM]: 25
- STRUCTURE SMILES STRING: "COc1cc2c(-c3cnn4cc(N5CCC(N6C[C@H]7C[C@@H]6CN7)CC5)cnc34)ccnc2cc1F"
  IC50 [nM]: 71

###

Molecular target: ALK4 (Homo sapiens, UniProt P36896)
Construct: purchased Life technology (Fredrick, Md.) and/or CARNA BIOSCIENCES Inc. (Kobe, Japan)
Sequence (P36896 24-505): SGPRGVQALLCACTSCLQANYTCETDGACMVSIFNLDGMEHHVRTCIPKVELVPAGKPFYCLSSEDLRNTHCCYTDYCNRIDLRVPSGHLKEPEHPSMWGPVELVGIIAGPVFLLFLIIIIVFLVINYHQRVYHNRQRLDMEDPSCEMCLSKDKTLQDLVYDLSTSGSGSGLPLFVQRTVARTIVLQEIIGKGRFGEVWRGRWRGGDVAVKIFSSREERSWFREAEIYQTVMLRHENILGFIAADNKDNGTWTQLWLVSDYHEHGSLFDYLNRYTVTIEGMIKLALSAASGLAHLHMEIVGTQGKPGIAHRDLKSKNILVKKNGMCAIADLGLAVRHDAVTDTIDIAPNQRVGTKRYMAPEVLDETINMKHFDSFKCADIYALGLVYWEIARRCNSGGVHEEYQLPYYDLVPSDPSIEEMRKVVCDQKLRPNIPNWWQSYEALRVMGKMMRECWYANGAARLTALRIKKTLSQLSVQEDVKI
Test: TR-FRET enzymatic assay, ALK4 kinase, 1536-well
Format: biochemical
Conditions: 10 nM ALK, Ulight topo II substrate 50 nM, ATP 10 uM (Table 1)

- MOLECULE: "Cc1cc(-c2cnn3cc(N4CCC(N5CCNCC5)CC4)cnc23)c2ccccc2n1 [Compound 34]"
  UNIT SPEC: "nM"
  IC50: 2030
- MOLECULE: "Cc1cc(-c2cnn3cc(N4CCC(N5CCOCC5)CC4)cnc23)c2ccccc2n1 [Compound 11]"
  UNIT SPEC: "nM"
  IC50: 1030
- MOLECULE: "Cc1cc(-c2cnn3cc(N4CCC(N5CCN(C)CC5)CC4)cnc23)c2ccccc2n1 [Compound 8]"
  UNIT SPEC: "nM"
  IC50: 994
- MOLECULE: "COc1cc2c(-c3cnn4cc(N5CCC(N6CCN(C)CC6)CC5)cnc34)ccnc2cc1F [Compound 15]"
  UNIT SPEC: "nM"
  IC50: 4210

###

Target: ALK2 (Mus musculus, UniProt P37172)
Construct: endogenous in cells; host or cells: C2C12-BRE (BRE-Luc reporter line, G418 selection)
Experiment: Luciferase reporter gene assay for ALK2 activity (C2C12 BRE-Luc SMAD1/5/8 reporter, BMP6 agonist)
Type: cell-based
Details: BMP6 50 ng/mL
PARAMETER: log10 of IC50 (log10 of the value in nM)

- STRUCTURE SMILES STRING: "CN1CCN(C2CCN(c3cnc4c(-c5cn[nH]c5)cnn4c3)CC2)CC1"
  log10 of IC50: 2.27
- STRUCTURE SMILES STRING: "Cc1cc(-c2cnn3cc(N4CC(N5CCN(C)CC5)C4)cnc23)c2ccc(F)c(F)c2n1"
  log10 of IC50: 1.36
- STRUCTURE SMILES STRING: "COc1cc2c(-c3cnn4cc(N5CCC(N6CCN(C)CC6)CC5)cnc34)ccnc2cc1Cl"
  log10 of IC50: 1.86
- STRUCTURE SMILES STRING: "CN1CCN(C2CCN(c3cnc4c(-c5cccc(S(C)(=O)=O)c5)cnn4c3)CC2)CC1"
  log10 of IC50: 2.99
- STRUCTURE SMILES STRING: "COc1ccc2nccc(-c3cnn4cc(N5CCC(N6CCOCC6)CC5)cnc34)c2c1"
  log10 of IC50: 1.57
